System: NCI-H2170
Experiment: relative viability (nuclei count vs DMSO), 5 days (fraction); higher = more cells survive
Details: first compound 20 µM
Listed below: relative viability values for each entry.
Respond with the number and no other words.

Below, 3 molecules whose answers are already recorded.
molecule: Cc1csc(=NC2CCCCC2)n1/N=C/c1ccc(O)c(O)c1O [MIM1] + Cc1cc(Nc2cc(N3CCN(C)CC3)nc(Sc3ccc(NC(=O)C4CC4)cc3)n2)n[nH]1 [Tozasertib] (partner 0.1 µM)
relative viability: 0.206
--
molecule: Cc1csc(=NC2CCCCC2)n1/N=C/c1ccc(O)c(O)c1O [MIM1] + COc1cccc2cc(-c3nc([C@H]4CC[C@H](C(=O)O)CC4)n4ncnc(N)c34)[nH]c12 [OSI-027] (partner 0.5 µM)
relative viability: 0.2
--
molecule: Cc1csc(=NC2CCCCC2)n1/N=C/c1ccc(O)c(O)c1O [MIM1] + CC(=O)c1c(C)c2cnc(Nc3ccc(N4CCNCC4)cn3)nc2n(C2CCCC2)c1=O [Palbociclib] (partner 0.5 µM)
relative viability: 0.142

Problem: Specify measured relative viability for Cc1csc(=NC2CCCCC2)n1/N=C/c1ccc(O)c(O)c1O [MIM1] + N=C(N)NC(=N)NCCc1ccccc1 [Phenformin] (partner 250 µM) .
Result: 0.172

Value source: the supplement of paper PMC10307832
